Hey, just so you know, these numbers are from patent US7320972B2.

# Test system: cholesterol absorption (serum 3H-cholesterol)
# test-protocol: In Vivo Assay of Hypolipidemic Agents using the Rat Cholesterol Absorption Model
# Design: species or system Sprague-Dawley rats
# conditions: peroral, 10 mg/kg (footnote 1), serum 3H-cholesterol vs vehicle control
Quick reference: % inhibition at 10 mg/kg of the listed items.

molecule: O=C1[C@H](CC[C@H](O)c2ccc(F)cc2)[C@@H](c2ccc(-c3cccc([N+](=O)[O-])c3)cc2)N1c1ccc(F)cc1 [Example 23]
target-of-assay: cholesterol absorption (serum 3H-cholesterol)
% inhibition at 10 mg/kg: 54^1%
--
molecule: O=C1[C@H](CC[C@H](O)c2ccc(F)cc2)[C@@H](c2ccc(-c3ccc(O)cc3)cc2)N1c1ccc(F)cc1 [Example 2]
target-of-assay: cholesterol absorption (serum 3H-cholesterol)
% inhibition at 10 mg/kg: 54^1%
--
molecule: O=C1[C@H](CC[C@H](O)c2ccc(F)cc2)[C@@H](c2ccc(-c3ccccc3)cc2)N1c1ccc(F)cc1 [Example 3]
target-of-assay: cholesterol absorption (serum 3H-cholesterol)
% inhibition at 10 mg/kg: 15^1%

# % inhibition at 10 mg/kg (molecule: CC(=O)Nc1cccc(-c2ccc([C@@H]3[C@@H](CC[C@H](O)c4ccc(F)cc4)C(=O)N3c3ccc(F)cc3)cc2)c1 [Example 26] ) is 76^1%

// recorded % inhibition at 10 mg/kg for COc1ccc(-c2ccc([C@@H]3[C@@H](CC[C@H](O)c4ccc(F)cc4)C(=O)N3c3ccc(F)cc3)cc2)cc1 [Example 5] : 26^1%
